Source: PubChem BioAssay AID1347075

- experiment_notes: qHTS assay for MDR1-selective chemotherapeutics: Primary screen using the parental adenocarcinoma cell KB-3-1; note: nearly all actives have a fitted effect of over 60% in size; note: potency is the fitted concentration of half-maximal effect
- condition: KB-3-1 viability, CellTiter-Glo ATP luminescence, 72 h; series mostly up to 46.1 µM
Hit rate of the full screen: of about 400,000 compounds, about 5,500 (1.4%) were called active. About 9% were inconclusive and are not listed. This excerpt belongs to a sample that is enriched for actives.
measured_metric: Potency

Some entries whose results are on file:
- molecule: "O=C1CCC[C@@H]2C[C@@]3(C[C@@H]4CCN1[C@H]24)Nc1ccccc1NC3=NCc1ccccc1"
  Potency: "inactive"
- molecule: "Cc1ccc2nc(-c3ccco3)c(Cc3cccc(Cl)c3)n2c1"
  Potency: "inactive"
- molecule: "Cn1c(-c2ccco2)nc2cc3ccccc3cc21"
  Potency: "18.4 µM (active)"
- molecule: "COc1ccc(C(=O)NNc2cc(C)nc(NNC(=O)c3ccc(OC)cc3)n2)cc1"
  Potency: "inactive"

Please look up its Potency: Cc1cc(C)nc(-n2nc(C)cc2NC(=O)c2ccc(F)cc2F)n1
inactive

What value of Potency has been recorded for this entry: CCOC(=O)CSC1=C(C#N)C(c2sccc2C)CC(=O)N1 (stereo not given)
5.01 µM (active)

What value of Potency has been reported for the following molecule? COc1ccc(-c2cc(NC=O)c3ncc(-c4cccc(C(=O)N(C)C)c4)n3c2)c(OC)c1
inactive

I'd like to know its Potency. The molecule in question is CC(=O)c1ccc(Oc2cc(C)nc(-n3nc(C)cc3C)n2)cc1
0.651 µM (active)

Quick check: Potency of Cc1ccc(CNC(=O)CCC(=O)N2Cc3ccccc3Oc3ncccc32)cc1 ?
inactive

Consider the molecule shown here: COc1cccc(CNC(=O)c2nnn(CC(=O)Nc3cc(Cl)ccc3C)c2N)c1 What is its recorded Potency?
inactive

====

- experiment_notes: qHTS assay for MDR1-selective chemotherapeutics: Primary screen using the parental adenocarcinoma cell KB-3-1; note: nearly all actives have a fitted effect of over 60% in size
- condition: KB-3-1 viability, CellTiter-Glo ATP luminescence, 72 h; series mostly up to 46.1 µM
- Description: A prime difficulty in effectively treating cancer is the development of cellular resistance to multiple structurally unrelated anticancer drugs, a phenomenon known as multidrug resistance (MDR). […] Numerous strategies to overcome P-gp-mediated MDR have been explored, including the design of drugs that evade recognition and efflux, and development of inhibitors to block efflux and restore drug accumulation. […]
Screen size: about 400,000 compounds; about 5,500 (1.4%) were called active. Roughly 9% stayed inconclusive and do not appear here. The call rests on the fitted dose curve; in most records, active means well fitted cell-killing curve with a large enough effect; inconclusive means small, poorly fitted or top-dose-only effect, or effect the other way; inactive means flat fitted curve, though single readings scatter. The full list was thinned out, with actives kept by preference.
Can you answer with just one of these options? active, inactive

How was Cc1oc2c(c1C(=O)Nc1ccc(F)c(F)c1)C1=NCCN1C=N2 classified in this test?
inactive

Just curious, what result did CCOc1ccc(NC(=O)Cn2c(=O)n(CCCC(=O)NCc3ccc4c(c3)OCO4)c(=O)c3ccccc32)cc1 get here?
inactive

Look up the recorded call for C=CCn1c(CC(=O)Nc2cccc(OC)c2)nnc1SCC(=O)NC1CCCCC1 in this test.
inactive

Lab log entry: Cc1cccc(NC(=O)N2CCN(C)c3ncccc32)c1C — outcome as called in the assay?
inactive

What did this assay record as the result for CCN(CCCNC(=O)c1cc2c(=O)n(CC)c3ccccc3c2s1)Cc1ccccc1 ?
inactive

# fetch the recorded call for CCCOc1ccc(NC(=O)CC2C(=O)N(C)C(=S)N2Cc2ccc3c(c2)OCO3)cc1 (stereo not given) here
active

Could you kindly confirm the outcome this assay logged for COc1cc(NC(=O)CN2CCN(S(=O)(=O)c3ccc(Br)cc3)CC2)cc(OC)c1 ?
inactive

How was COc1ccc(-n2c(SCC(=O)Nc3ccc(Cl)c(C)c3)nc3n[nH]c(C)c3c2=N)cc1 classified in this test?
inactive

// outcome(item) with item = COc1cccc(-n2c(SCC(=O)NC3CCCCC3)nc3n[nH]c(C)c3c2=N)c1
active

Recorded test outcome, item O=C(c1ccc(Br)cc1)N(Cc1cccs1)c1ccc(F)cc1
inactive
